# maps each entry to its combination Emax
System: SK-MM-2 (Plasma Cell Myeloma)
protocol_description: combination Emax (second highest fraction inhibited in the dose matrix, 72 h); higher = more inhibition; extreme values may be limits of the assay
No unit in the answer, only the number.

Example results:
1) CC(=O)c1c(C)c2cnc(Nc3ccc(N4CCNCC4)cn3)nc2n(C2CCCC2)c1=O [Palbociclib] + Cn1cnc2c(F)c(Nc3ccc(Br)cc3Cl)c(C(=O)NOCCO)cc21 [Selumetinib] (first compound max 10 µM, 7x7, partner max 10 µM) = 0.138
2) CS(=O)(=O)CCNCc1ccc(-c2ccc3ncnc(Nc4ccc(OCc5cccc(F)c5)c(Cl)c4)c3c2)o1 [Lapatinib] + C[C@@H](Oc1cc(-c2cnn(C3CCNCC3)c2)cnc1N)c1c(Cl)ccc(F)c1Cl [Crizotinib] (first compound max 10 µM, 7x7, partner max 10 µM) = 0.43
3) COc1cccc(OCCCN)c1-c1cc(Nc2cnc(C#N)cn2)n[nH]1 [Prexasertib] + C=CCn1c(=O)c2cnc(Nc3ccc(N4CCN(C)CC4)cc3)nc2n1-c1cccc(C(C)(C)O)n1 [AZD1775] (first compound max 1 µM, partner max 1 µM) = 0.723

# input for lookup
*Q* # get_value(readout='combination Emax', item= COc1cc2ncnc(Nc3ccc(F)c(Cl)c3)c2cc1OCCCN1CCOCC1 [Gefitinib] + CC(C)n1c(=O)n(C)c2cnc3cc(F)c(-c4ccc(OCCCN5CCCCC5)nc4)cc3c21 [AZD1390] (first compound max 10 µM, 7x7, partner max 0.3 µM) )
*A* 0.151

Each recorded value in this set is attributed to the supplement of paper PMC11061612.
